Tested on: NTS
experiment.description: Speed-of-action assay in NTS
Format: cell-based, Schistosoma mansoni
measurement.context: NTS, 48 h, 10 μM
Give measured Percentage of effect for each item. Keep answers brief.
Numbers only, in %.

Here are 4 molecules together with their reported answers.
molecule: C#Cc1ccc(C(=O)Nc2ccc(C3CC3N)cc2)cc1 (centres unmarked) [MC3935, reference compound]
reported.value: 34.69
--
molecule: CC#Cc1ccc(C(=O)Nc2ccc(C3CC3N)cc2)cc1.Cl (centres unmarked)
reported.value: 81.63
--
molecule: NC1CC1c1ccc(NC(=O)c2ccc(-c3ccccc3)cc2)cc1 (centres unmarked)
reported.value: 87.76
--
molecule: CCCc1ccc(C(=O)Nc2ccc(C3CC3N)cc2)cc1.Cl (centres unmarked)
reported.value: 51.02

Now, please, on to the next molecule.
Sample Cl.NC1CC1c1ccc(NC(=O)c2ccc(C#CC3CC3)cc2)cc1 (centres unmarked) ; Percentage of effect observed: 87.76
